src = paper PMC12529666

- measured_target: AGO2 T357M (Homo sapiens, UniProt Q9UKV8 1-859, T357M;S387D;S824A;S828D;S831D;S834A)
- Sequence (Q9UKV8 whole entry T357M/S387D/S824A/S828D/S831D/S834A): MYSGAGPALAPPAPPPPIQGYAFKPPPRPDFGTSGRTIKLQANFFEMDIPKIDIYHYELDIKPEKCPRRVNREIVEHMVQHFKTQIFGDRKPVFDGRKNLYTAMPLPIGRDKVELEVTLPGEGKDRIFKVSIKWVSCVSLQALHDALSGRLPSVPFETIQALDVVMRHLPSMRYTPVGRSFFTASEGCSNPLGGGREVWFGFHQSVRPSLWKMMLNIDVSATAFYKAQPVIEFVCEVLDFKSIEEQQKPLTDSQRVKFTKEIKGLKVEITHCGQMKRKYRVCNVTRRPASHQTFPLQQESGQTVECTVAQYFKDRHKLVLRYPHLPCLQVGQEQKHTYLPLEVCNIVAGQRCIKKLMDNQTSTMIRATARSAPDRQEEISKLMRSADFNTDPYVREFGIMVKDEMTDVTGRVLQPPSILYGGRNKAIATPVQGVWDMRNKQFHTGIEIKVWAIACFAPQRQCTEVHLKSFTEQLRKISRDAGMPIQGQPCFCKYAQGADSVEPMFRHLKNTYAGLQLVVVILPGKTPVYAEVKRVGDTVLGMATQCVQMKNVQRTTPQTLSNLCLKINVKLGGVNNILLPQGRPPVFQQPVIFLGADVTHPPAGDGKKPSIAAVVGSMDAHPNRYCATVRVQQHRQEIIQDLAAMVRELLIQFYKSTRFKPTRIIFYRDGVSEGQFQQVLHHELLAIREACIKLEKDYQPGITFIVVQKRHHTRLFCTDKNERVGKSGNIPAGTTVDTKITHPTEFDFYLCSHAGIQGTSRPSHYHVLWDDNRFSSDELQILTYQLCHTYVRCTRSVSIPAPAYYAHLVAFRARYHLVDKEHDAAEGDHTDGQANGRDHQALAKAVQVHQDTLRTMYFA
- experiment: RNA Bind-n-Seq (nitrocellulose filter binding and sequencing); miR-122 guide loaded in AGO2; 60 min incubation; 30 mM Tris pH 8.0, 100 mM potassium acetate, 2 mM magnesium acetate, 0.5 mM TCEP, 0.005% NP-40, 0.01 mg/ml yeast tRNA; 3 nM AGO2-miR-122, 100 nM RNA library; 60; high values mean tight binding
- condition: protein: recombinant; tags: His6 (N-terminal, pFastBac HTA)
assay_metric: binding signal

• ACATTTTA (ssRNA, constant regions annealed to DNA blockers; guide miR-122 5' phosphate) RNA 1: GAGUUCUACAGUCCGACGAUCCCAACACAUUUUACACCUGGAAUUCUCGGGUGCCAA RNA 2: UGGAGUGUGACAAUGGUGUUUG DNA 1: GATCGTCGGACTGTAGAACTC DNA 2: TTGGCACCCGAGAATTCCA = 0.598 fold enrichment over input
• ACACTTCG (ssRNA, constant regions annealed to DNA blockers; guide miR-122 5' phosphate) RNA 1: GAGUUCUACAGUCCGACGAUCCCAACACACUUCGCACCUGGAAUUCUCGGGUGCCAA RNA 2: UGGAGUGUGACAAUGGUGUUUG DNA 1: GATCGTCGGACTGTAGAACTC DNA 2: TTGGCACCCGAGAATTCCA = 0.541 fold enrichment over input
• ATACTCCA (ssRNA, constant regions annealed to DNA blockers; guide miR-122 5' phosphate) RNA 1: GAGUUCUACAGUCCGACGAUCCCAACAUACUCCACACCUGGAAUUCUCGGGUGCCAA RNA 2: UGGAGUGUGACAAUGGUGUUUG DNA 1: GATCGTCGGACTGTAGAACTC DNA 2: TTGGCACCCGAGAATTCCA = 1.16 fold enrichment over input
• GCGTCTCA (ssRNA, constant regions annealed to DNA blockers; guide miR-122 5' phosphate) RNA 1: GAGUUCUACAGUCCGACGAUCCCAACGCGUCUCACACCUGGAAUUCUCGGGUGCCAA RNA 2: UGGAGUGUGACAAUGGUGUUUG DNA 1: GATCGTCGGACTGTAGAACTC DNA 2: TTGGCACCCGAGAATTCCA = 0.646 fold enrichment over input
• GTATCTCG (ssRNA, constant regions annealed to DNA blockers; guide miR-122 5' phosphate) RNA 1: GAGUUCUACAGUCCGACGAUCCCAACGUAUCUCGCACCUGGAAUUCUCGGGUGCCAA RNA 2: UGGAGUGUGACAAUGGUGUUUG DNA 1: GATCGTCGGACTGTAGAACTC DNA 2: TTGGCACCCGAGAATTCCA = 0.424 fold enrichment over input
• GTGTTCTA (ssRNA, constant regions annealed to DNA blockers; guide miR-122 5' phosphate) RNA 1: GAGUUCUACAGUCCGACGAUCCCAACGUGUUCUACACCUGGAAUUCUCGGGUGCCAA RNA 2: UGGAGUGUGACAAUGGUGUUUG DNA 1: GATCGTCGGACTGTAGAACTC DNA 2: TTGGCACCCGAGAATTCCA = 0.531 fold enrichment over input
• ATATTCCG (ssRNA, constant regions annealed to DNA blockers; guide miR-122 5' phosphate) RNA 1: GAGUUCUACAGUCCGACGAUCCCAACAUAUUCCGCACCUGGAAUUCUCGGGUGCCAA RNA 2: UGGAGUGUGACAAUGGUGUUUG DNA 1: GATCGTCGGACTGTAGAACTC DNA 2: TTGGCACCCGAGAATTCCA = 0.541 fold enrichment over input
• GTATTCCA (ssRNA, constant regions annealed to DNA blockers; guide miR-122 5' phosphate) RNA 1: GAGUUCUACAGUCCGACGAUCCCAACGUAUUCCACACCUGGAAUUCUCGGGUGCCAA RNA 2: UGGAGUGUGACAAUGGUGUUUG DNA 1: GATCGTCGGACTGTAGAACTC DNA 2: TTGGCACCCGAGAATTCCA = 0.623 fold enrichment over input
• ATGCCCCG (ssRNA, constant regions annealed to DNA blockers; guide miR-122 5' phosphate) RNA 1: GAGUUCUACAGUCCGACGAUCCCAACAUGCCCCGCACCUGGAAUUCUCGGGUGCCAA RNA 2: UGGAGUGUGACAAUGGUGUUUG DNA 1: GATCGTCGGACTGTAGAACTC DNA 2: TTGGCACCCGAGAATTCCA = 0.489 fold enrichment over input
• ACACCCCA (ssRNA, constant regions annealed to DNA blockers; guide miR-122 5' phosphate) RNA 1: GAGUUCUACAGUCCGACGAUCCCAACACACCCCACACCUGGAAUUCUCGGGUGCCAA RNA 2: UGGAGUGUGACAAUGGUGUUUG DNA 1: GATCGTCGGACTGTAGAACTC DNA 2: TTGGCACCCGAGAATTCCA = 0.678 fold enrichment over input
• ATACTTTG (ssRNA, constant regions annealed to DNA blockers; guide miR-122 5' phosphate) RNA 1: GAGUUCUACAGUCCGACGAUCCCAACAUACUUUGCACCUGGAAUUCUCGGGUGCCAA RNA 2: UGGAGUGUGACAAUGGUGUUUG DNA 1: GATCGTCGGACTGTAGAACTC DNA 2: TTGGCACCCGAGAATTCCA = 0.553 fold enrichment over input
• GTGTCCTG (ssRNA, constant regions annealed to DNA blockers; guide miR-122 5' phosphate) RNA 1: GAGUUCUACAGUCCGACGAUCCCAACGUGUCCUGCACCUGGAAUUCUCGGGUGCCAA RNA 2: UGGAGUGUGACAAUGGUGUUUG DNA 1: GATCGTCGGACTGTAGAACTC DNA 2: TTGGCACCCGAGAATTCCA = 0.452 fold enrichment over input
• ATGCTTCA (ssRNA, constant regions annealed to DNA blockers; guide miR-122 5' phosphate) RNA 1: GAGUUCUACAGUCCGACGAUCCCAACAUGCUUCACACCUGGAAUUCUCGGGUGCCAA RNA 2: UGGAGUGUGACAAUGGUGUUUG DNA 1: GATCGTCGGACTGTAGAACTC DNA 2: TTGGCACCCGAGAATTCCA = 0.582 fold enrichment over input
• ATGCTCTG (ssRNA, constant regions annealed to DNA blockers; guide miR-122 5' phosphate) RNA 1: GAGUUCUACAGUCCGACGAUCCCAACAUGCUCUGCACCUGGAAUUCUCGGGUGCCAA RNA 2: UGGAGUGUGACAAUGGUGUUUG DNA 1: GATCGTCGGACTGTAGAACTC DNA 2: TTGGCACCCGAGAATTCCA = 0.486 fold enrichment over input
• GTGCTCCA (ssRNA, constant regions annealed to DNA blockers; guide miR-122 5' phosphate) RNA 1: GAGUUCUACAGUCCGACGAUCCCAACGUGCUCCACACCUGGAAUUCUCGGGUGCCAA RNA 2: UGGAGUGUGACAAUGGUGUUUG DNA 1: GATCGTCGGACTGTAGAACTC DNA 2: TTGGCACCCGAGAATTCCA = 0.649 fold enrichment over input
